# STUDY TARGET: 5-HT2 receptor (Rattus norvegicus, UniProt P14842)
# Construct: Rat cerebral cortex was homogenized; from tissue; host or cells: rat cerebral cortex, P2 membrane fraction
# Sequence (P14842 whole entry): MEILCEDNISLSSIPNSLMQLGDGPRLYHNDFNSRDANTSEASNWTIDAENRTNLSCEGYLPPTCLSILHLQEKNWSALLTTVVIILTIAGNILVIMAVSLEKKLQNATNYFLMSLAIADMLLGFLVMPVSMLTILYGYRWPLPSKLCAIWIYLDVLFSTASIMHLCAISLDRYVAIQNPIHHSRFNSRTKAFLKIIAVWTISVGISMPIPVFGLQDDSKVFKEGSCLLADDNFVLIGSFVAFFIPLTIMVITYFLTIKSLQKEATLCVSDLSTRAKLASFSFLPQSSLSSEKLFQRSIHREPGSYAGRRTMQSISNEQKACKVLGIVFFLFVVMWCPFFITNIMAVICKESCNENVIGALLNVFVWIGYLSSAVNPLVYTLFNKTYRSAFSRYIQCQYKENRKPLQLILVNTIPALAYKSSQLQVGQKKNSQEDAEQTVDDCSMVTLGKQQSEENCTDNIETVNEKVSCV
# EXPERIMENT SUMMARY: Binding affinity for 5-HT2 receptor ([3H]ketanserin binding, rat cerebral cortex P2 fraction)
# SETTINGS: [3H]ketanserin 1 nM, 37° C. 15 minutes, Ki calculated from IC50
# Description: Test Example 2 Binding Affinity for 5-HT2 Rector […] The P2 fraction was incubated at 37° C. for 15 minutes in 50 mM Tris-HCl (pH 7.4) buffer containing 1 nM of [^3H]ketanserin and each of the compounds of the invention and then filtered after the reaction using Whatman GF/B glass filter. The radioactivity on the filter was measured using a liquid scintillation counter. Non-specific binding was determined by 10 μM ketanserin, and the specific binding was calculated based on the difference therefrom. […]
READOUT TYPE: Ki (nM)
Form entry: value (nM) — number only.

Task item: Any idea what Ki was measured for O=C1Nc2cccc3c2C1(CCCCN1CCN2c4ccccc4OCC2C1)CCC3 (stereo not drawn) [Compd. of Syn. Ex. 1b] ?
Reply: 151

Task item: Please give the measured Ki for this compound: COCn1c2c(c3ccccc31)CCN(CCCCC13CCCc4cccc(c41)NC3=O)C2 (stereo not drawn) [Compd. of Syn. Ex. 21a]
Reply: 524

meta.source: patent US6498251B1
